System: chimeric Caspase-9 polypeptide
Sequence (P62942 2-108 F37V limits assumed): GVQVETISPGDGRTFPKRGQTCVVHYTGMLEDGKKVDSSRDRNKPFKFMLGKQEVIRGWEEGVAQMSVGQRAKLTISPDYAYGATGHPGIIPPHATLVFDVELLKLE
TEST SUMMARY: Caspase-9 mutant classes and basal activity (Table 5)
Type: cell-based
ASSAY CONTEXT: Caspase-9 mutant class
MEASUREMENT NAME: Catalytic activity (class 'Catalytically dead')

{"MOLECULE": "D330A-Y153A (protein) GFGDVGALESLRGNADLAAILSMEPCGHCLIINNVNFCRESGLRTRTGSNIDCEKLRRRFSSLHFMVEVKGDLTAKKMVLALLELARQDHGALDCCVVVILSHGCQASHLQFPGAVYGTDGCPVSVEKIVNIFNGTSCPSLGGKPKLFFIQACGGEQKDHGFEVASTSPEDESPGSNPEPDATPFQEGLRTFDQLAAISSLPTPSDIFVSYSTFPGFVSWRDPKSGSWYVETLDDIFEQWAHSEDLQSLLLRVANAVSVKGIYKQMPGCFNFLRKKLFFKTSASRA", "RESULT VALUE": "dead"}
{"MOLECULE": "G402I (protein) GFGDVGALESLRGNADLAYILSMEPCGHCLIINNVNFCRESGLRTRTGSNIDCEKLRRRFSSLHFMVEVKGDLTAKKMVLALLELARQDHGALDCCVVVILSHGCQASHLQFPGAVYGTDGCPVSVEKIVNIFNGTSCPSLGGKPKLFFIQACGGEQKDHGFEVASTSPEDESPGSNPEPDATPFQEGLRTFDQLDAISSLPTPSDIFVSYSTFPGFVSWRDPKSGSWYVETLDDIFEQWAHSEDLQSLLLRVANAVSVKGIYKQMPICFNFLRKKLFFKTSASRA", "RESULT VALUE": "dead"}
